molecular target: Ubiquitin carboxyl-terminal hydrolase 8 (Homo sapiens); experiment: Ubiquitin-specific protease 8 inhibitors, concentration-effect, biochemical, validation of initial actives (AID 1645862); conditions: recombinant USP8 deubiquitinase activity assay;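 note: potency reflects inhibition of USP8 cleavage of a ubiquitin rhodamine substrate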
Activity calls are given as the source filed them. The rule behind the calls is not given here.
Labels: active, inactive

MOLECULE	TESTED_ON	CLASSIFICATION
COc1ccc(-c2nc(NCCCN3CCOCC3)c3ccccc3n2)cc1	Ubiquitin carboxyl-terminal hydrolase 8 (Homo sapiens)	inactive
CCN(Cc1ccccc1)C(=O)Cn1ccc2ccn(C)c2c1=O	Ubiquitin carboxyl-terminal hydrolase 8 (Homo sapiens)	inactive
Cc1cc(C(=O)NC2(O)C(=O)c3ccccc3C2=O)n(C)n1	Ubiquitin carboxyl-terminal hydrolase 8 (Homo sapiens)	active
COc1ccc(C(=O)Nc2nc(-c3ccc4c(c3)NC(=O)CO4)c(C)s2)cc1OC	Ubiquitin carboxyl-terminal hydrolase 8 (Homo sapiens)	inactive
O=C(c1ccco1)N1CCC2(CC1)CC1(CO2)Nc2ccccc2-n2cccc21 (stereo not given)	Ubiquitin carboxyl-terminal hydrolase 8 (Homo sapiens)	active
O=S1(=O)CCN(Cc2cccnc2)c2c(F)nc(N3CCOCC3)c(F)c21	Ubiquitin carboxyl-terminal hydrolase 8 (Homo sapiens)	inactive
O=C(NCCc1ccccc1)c1ccc2c(=O)n(Cc3ccco3)c(=O)n(Cc3cccc([N+](=O)[O-])c3)c2c1	Ubiquitin carboxyl-terminal hydrolase 8 (Homo sapiens)	active
Cc1sc(NC(=O)Cn2nnc3ccccc32)nc1-c1ccc2c(c1)CCN2C(=O)c1ccccc1F	Ubiquitin carboxyl-terminal hydrolase 8 (Homo sapiens)	inactive
COc1cccc2c1NC(=O)C21CCN(C(=O)Nc2cccc3ccccc23)CC1	Ubiquitin carboxyl-terminal hydrolase 8 (Homo sapiens)	inactive
CCOc1ccc2c(c1)c(=O)c(C(=O)c1ccccc1)cn2CC(=O)Nc1ccc(Cl)cc1	Ubiquitin carboxyl-terminal hydrolase 8 (Homo sapiens)	active
